Tested on: Tau phosphorylation at Ser396 (pSer396)
assay-notes: Tau phosphorylation at Ser396 (pSer396) in SH-SY5Y cells, ELISA / western blot;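 also: decrease in pSer396 Tau measured in lysates of treated cells by colorimetric ELISA or chemiluminescent western blot, same pSer396 antibody for both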
Assay type: cell-based, human
study-conditions: Homo sapiens; SH-SY5Y cells, overnight (16-18 h); read-out: pSer396 Tau EC50
pEC50: −log10 of the molar value.
Output label 1 for pEC50 not less than 6; output label 0 otherwise.

- structure-string: "CN1CCN(c2cccc(C(=O)Nc3cc4cc(-c5cnn(C)c5)ccc4nn3)c2)CC1"
  label: "label 0"
- structure-string: "Cn1cc(-c2cc3cc(NC(=O)C4CCN(Cc5ncco5)CC4)ncc3cn2)cn1"
  label: "label 1"
- structure-string: "Cc1ncc(-c2ccc3cnc(NC(=O)N4CCOCC4)cc3n2)s1"
  label: "label 0"
- structure-string: "Cn1cc(-c2cnc3cnc(NC(=O)C4CCNCC4)cc3c2)cn1"
  label: "label 0"
- structure-string: "Cn1cncc1-c1cc2cc(NC(=O)c3ccc4c(c3)CNC4)ncc2cn1"
  label: "label 0"
- structure-string: "CN(CC(=O)Nc1cc2cc(-c3cnn(C)c3)ncc2cn1)C1CCC1"
  label: "label 1"
- structure-string: "CC(C)Oc1ccc(C(=O)Nc2cc3nc(-c4cnc5n4CCNC5)ccc3cn2)cc1"
  label: "label 0"
- structure-string: "Cn1ncc(-c2cc3cc(NC(=O)c4ccnc(N5CCOCC5)c4)ncc3cn2)c1CN1CCOCC1"
  label: "label 1"
- structure-string: "Cn1cc(-c2cnc3cnc(NC(=O)c4ccnc(N5CCNCC5)c4)cc3c2)cn1"
  label: "label 0"
- structure-string: "CN1CCN(c2cc(C(=O)Nc3cc4cc(-c5cn(C)nn5)cnc4cn3)ccn2)CC1"
  label: "label 0"
- structure-string: "C[C@H]1CCCN1CC(=O)Nc1cc2cc(-c3cnn(C)c3)ncc2cn1"
  label: "label 1"
- structure-string: "Cc1nnc(-c2ccc3cnc(NC(=O)C4CCN(C(=O)c5ccccc5)CC4)nc3c2)s1"
  label: "label 1"
- structure-string: "CC(C)CN1CCC(C(=O)Nc2cc3cc(-c4cnn(C)c4)cnc3cn2)CC1"
  label: "label 0"
- structure-string: "CN1CCC(C(=O)Nc2cc3cc(-c4cnsc4)ncc3cn2)CC1"
  label: "label 1"
- structure-string: "O=C(Nc1ncc2ccc(-c3cncc(NCC4(F)CNC4)n3)cc2n1)C1CC1"
  label: "label 0"
- structure-string: "O=C(Nc1cc2nc(-c3cncs3)ccc2cn1)[C@H]1CC[C@H](CN2CC(F)C2)CC1"
  label: "label 1"
- structure-string: "Cn1cncc1-c1cc2cc(NC(=O)C3CCC(F)(F)CC3)ncc2cn1"
  label: "label 1"
- structure-string: "CN(C)[C@H]1CC[C@H](C(=O)Nc2cc3cc(-c4cncs4)ncc3cn2)CC1"
  label: "label 1"
- structure-string: "CN1CCC(Oc2ccc(C(=O)Nc3cc4cc(-c5cnn(C)c5)cnc4cn3)cc2)CC1"
  label: "label 0"
- structure-string: "Cc1ncc(-c2ccc3cnc(NC(=O)[C@H]4CC[C@H](CO)CC4)cc3n2)s1"
  label: "label 0"
- structure-string: "CN1CCC(C(=O)Nc2ncc3ccc(-c4cnsc4)cc3n2)CC1"
  label: "label 0"
- structure-string: "CN1CCC(Oc2ccc(C(=O)Nc3cc4cc(-c5cnn(C)c5)ncc4cn3)cc2)CC1"
  label: "label 0"
- structure-string: "O=C(Nc1ncc2ccc(-c3cccnc3)cc2n1)C1CC1"
  label: "label 1"
- structure-string: "CN(CC(=O)Nc1ncc2ccc(-c3cnn(C)c3)cc2n1)C1CCC1"
  label: "label 0"
- structure-string: "Cn1cc(-c2cc3cc(NC(=O)c4ccnc(OC5CCNCC5)c4)ncc3cn2)cn1"
  label: "label 0"
